# SYSTEM: T1, biotinylated TGPAvi (Galaxea fascicularis (coral), biotin on the Avi-tag (BirA))
# T1 chain 1: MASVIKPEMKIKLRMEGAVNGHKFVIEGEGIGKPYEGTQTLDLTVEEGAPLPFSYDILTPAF
# T1 chain 2: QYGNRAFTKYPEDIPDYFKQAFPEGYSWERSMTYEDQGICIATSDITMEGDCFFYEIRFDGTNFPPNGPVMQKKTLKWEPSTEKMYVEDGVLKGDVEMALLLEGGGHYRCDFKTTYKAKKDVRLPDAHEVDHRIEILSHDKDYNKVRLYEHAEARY
# EXPERIMENTAL DETAILS: BLI
Exercise: state measured Kd for each of the binders provided.
Just the number plus its unit, please.

*Q* Any idea what its Kd is? The binder is sybody 68 (VHH) VHH: QVQLVESGGGLVQAGGSLRLSCAASGFPVNAVTMWWYRQAPGKEREWVAAIKSQGAGTWYADSVKGRFTISRDNAKNTVYLQMNSLKPEDTAVYYCHVYVGAYRYEGRGTQVTVS
*A* 10.4 nM

*Q* Now give it for sybody 66 (VHH) VHH: QVQLVESGGGLVQAGGSLRLSCAASGFPVMENSMYWYRQAPGKEREWVAAITSQGSWTWYADSVKGRFTISRDNAKNTVYLQMNSLKPEDTAVYYCHVSVGTNYTGQGTQVTVS too.
*A* 7.8 nM

*Q* Now give it for sybody 92 (VHH) VHH: QVQLVESGGGLVQAGGSLRLSCAASGFPVDTQWMHWYRQAPGKEREWVAAISSTGRSTFYADSVKGRFTISRDNAKNTVYLQMNSLKPEDTAVYYCTVYVGNRYRGQGTQVTVS too.
*A* 3.3 nM

*Q* Now give it for sybody 44 (VHH) VHH: QVQLVESGGGLVQAGGSLRLSCAASGFPVGRASMWWYRQAPGKEREWVAAISSYGWVTAYADSVKGRFTISRDNAKNTVYLQMNSLKPEDTAVYYCEVSVGTGYRGQGTQVTVS too.
*A* 4.4 nM
